The measurements presented in this section are drawn from patent US20240252488A1.

# assayedTarget: UniProt:Q8NB16
# Sequence (Q8NB16 1-471): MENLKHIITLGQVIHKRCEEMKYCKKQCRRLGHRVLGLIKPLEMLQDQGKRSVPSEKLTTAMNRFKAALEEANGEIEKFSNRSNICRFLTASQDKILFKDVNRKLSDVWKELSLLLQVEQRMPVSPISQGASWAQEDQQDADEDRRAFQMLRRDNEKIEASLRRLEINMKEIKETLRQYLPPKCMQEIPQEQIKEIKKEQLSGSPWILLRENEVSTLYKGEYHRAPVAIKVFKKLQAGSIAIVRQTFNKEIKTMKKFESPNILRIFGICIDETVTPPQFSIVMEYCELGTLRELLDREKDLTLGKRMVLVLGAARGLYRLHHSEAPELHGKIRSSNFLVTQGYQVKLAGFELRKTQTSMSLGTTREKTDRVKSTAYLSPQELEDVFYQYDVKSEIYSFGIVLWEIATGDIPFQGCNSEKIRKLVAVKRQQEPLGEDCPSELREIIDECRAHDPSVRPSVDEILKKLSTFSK
# experimentDescription: MLKL degradation assay in HepG2 cell line (western blot)
# Type: cell-based
# Set-up: endogenous in cells; host or cells: HepG2 or HaCaT
# conditionDetails: compound 1 μM; cell line not given
In this section, each of the compounds is paired with its reported Degradation assay (Degradation %) 1 μM.

compound | assayedTarget | Degradation assay (Degradation %) 1 μM
Nc1ncc(-c2cnn(C3CCN(C4CC5(CCN(CC6CCN(C(=O)Cc7cccc(NC8=CC(=O)N(C9CCC(=O)NC9=O)C8=O)c7)CC6)CC5)C4)CC3)c2)nc1C(=O)O[C@@H](C(=O)Nc1ccc(F)cc1)c1ccccc1 (stereo partly drawn) | UniProt:Q8NB16 | 80.41
Nc1ncc(-c2cnn([C@H]3CCN(CCOCCOCCNC(=O)COc4cccc5c4C(=O)N(C4CCC(=O)NC4=O)C5=O)C3)c2)nc1C(=O)OC(C(=O)Nc1ccc(F)cc1)c1ccccc1 (stereo partly drawn) | UniProt:Q8NB16 | 11.99
Nc1ncc(-c2cnn(C3CCN(C(=O)c4cn(C5CCN(c6ccc7c(c6)C(=O)N(C6CCC(=O)NC6=O)C7=O)CC5)cn4)CC3)c2)nc1C(=O)O[C@@H](C(=O)Nc1ccc(F)cc1)c1ccccc1 (stereo partly drawn) | UniProt:Q8NB16 | 72.59
